protocolSummary: Coupled enzyme assay (ADH, with and without MSAD): hydratase and hydratase/decarboxylase activity and product profile of Cg10062 and variants
Type: biochemical
measurementParameters: ACA 0.5 mM, pH 8; enzyme final concentration differs per variant (0.025-1.50 mg mL^−1), rates not directly comparable
reportedProperty: Rate in the absence of MSAD

• Cg10062(E114N): Novel hydratase-only Cg10062 variant with E114N mutation, SEQ ID NO: 24 and 62 (protein, Cg10062(E114N) from Corynebacterium glutamicum codon-optimized for Escherichia coli) PTYTCWSQRIRISREAKQRIAEAITDAHHELAHAPKYLVQVIFNEVEPDSYFIAAQSASENHIWVQATIRSGRTEKQKEELLLRLTQEIALILGIPNEEVWVYITEIPGSNMTNYGRLLMEPGEEEKWFNSLPEGLRERLTELEGSSE = no activity
• Cg10062: Tautomerase superfamily enzyme from Corynebacterium glutamicum, SEQ ID NO: 21; His6-tagged form SEQ ID NO: 59 (protein, Cg10062 from Corynebacterium glutamicum codon-optimized for Escherichia coli) PTYTCWSQRIRISREAKQRIAEAITDAHHELAHAPKYLVQVIFNEVEPDSYFIAAQSASENHIWVQATIRSGRTEKQKEELLLRLTQEIALILGIPNEEVWVYITEIPGSNMTEYGRLLMEPGEEEKWFNSLPEGLRERLTELEGSSE = 120 µM/min
• R70A: Cg10062 variant with R70A mutation, SEQ ID NO: 26 and 64 (protein, Cg10062(R70A) from Corynebacterium glutamicum codon-optimized for Escherichia coli) PTYTCWSQRIRISREAKQRIAEAITDAHHELAHAPKYLVQVIFNEVEPDSYFIAAQSASENHIWVQATIASGRTEKQKEELLLRLTQEIALILGIPNEEVWVYITEIPGSNMTEYGRLLMEPGEEEKWFNSLPEGLRERLTELEGSSE = no activity
• Cg10062(E114D): Previously described Cg10062 variant with E114D mutation, SEQ ID NO: 23 and 61 (protein, Cg10062(E114D) from Corynebacterium glutamicum codon-optimized for Escherichia coli) PTYTCWSQRIRISREAKQRIAEAITDAHHELAHAPKYLVQVIFNEVEPDSYFIAAQSASENHIWVQATIRSGRTEKQKEELLLRLTQEIALILGIPNEEVWVYITEIPGSNMTDYGRLLMEPGEEEKWFNSLPEGLRERLTELEGSSE = no activity
• R70K: Cg10062 variant with R70K mutation, SEQ ID NO: 27 and 65 (protein, Cg10062(R70K) from Corynebacterium glutamicum codon-optimized for Escherichia coli) PTYTCWSQRIRISREAKQRIAEAITDAHHELAHAPKYLVQVIFNEVEPDSYFIAAQSASENHIWVQATIKSGRTEKQKEELLLRLTQEIALILGIPNEEVWVYITEIPGSNMTEYGRLLMEPGEEEKWFNSLPEGLRERLTELEGSSE = no activity
• Y103A: Cg10062 variant with Y103A mutation, SEQ ID NO: 30 and 68 (protein, Cg10062(Y103A) from Corynebacterium glutamicum codon-optimized for Escherichia coli) PTYTCWSQRIRISREAKQRIAEAITDAHHELAHAPKYLVQVIFNEVEPDSYFIAAQSASENHIWVQATIRSGRTEKQKEELLLRLTQEIALILGIPNEEVWVAITEIPGSNMTEYGRLLMEPGEEEKWFNSLPEGLRERLTELEGSSE = 16 µM/min
• R73A: Cg10062 variant with R73A mutation, SEQ ID NO: 28 and 66 (protein, Cg10062(R73A) from Corynebacterium glutamicum codon-optimized for Escherichia coli) PTYTCWSQRIRISREAKQRIAEAITDAHHELAHAPKYLVQVIFNEVEPDSYFIAAQSASENHIWVQATIRSGATEKQKEELLLRLTQEIALILGIPNEEVWVYITEIPGSNMTEYGRLLMEPGEEEKWFNSLPEGLRERLTELEGSSE = no activity
• Cg10062(E114D-Y103F): Cg10062 double variant E114D-Y103F, SEQ ID NO: 33 and 71 (protein, Cg10062(E114D-Y103F) from Corynebacterium glutamicum codon-optimized for Escherichia coli) PTYTCWSQRIRISREAKQRIAEAITDAHHELAHAPKYLVQVIFNEVEPDSYFIAAQSASENHIWVQATIRSGRTEKQKEELLLRLTQEIALILGIPNEEVWVFITEIPGSNMTDYGRLLMEPGEEEKWFNSLPEGLRERLTELEGSSE = no activity
